src = ChEMBL document CHEMBL3407438

# RUN_DESCRIPTION: Dissociation constant, pKa of the compound
# Assay type: physicochemical
MEASURED_QUANTITY: pKa

{"SMILES_DATA": "NC(=O)C1CCN(c2c(Cl)cncc2Cl)CC1", "MEASURED_QUANTITY": "pKa", "REPORTED": 3.5}

---

# RUN_DESCRIPTION: Drug metabolism in mouse liver microsome at 10 uM after 30 mins by LC-MS analysis
# Format: ADME
# STUDY_CONDITIONS: liver microsomes, read-out: Drug metabolism
MEASURED_QUANTITY: metabolised at 0.5 h, 10 µM (%)

{"SMILES_DATA": "C=C(C)c1cncc(-c2ccc(N3CCOCC3)cc2)c1N1CCC2(CCNC2=O)CC1", "REPORTED": 39}
{"SMILES_DATA": "NC(=O)C1CCN(c2c(Cl)cncc2-c2ccncc2)CC1", "REPORTED": 40}
{"SMILES_DATA": "NC(=O)C1CCN(c2c(Cl)cncc2Cl)CC1", "REPORTED": 41}
{"SMILES_DATA": "NC(=O)C1CCN(c2c(Cl)cncc2-c2ccccc2)CC1", "REPORTED": 56}
{"SMILES_DATA": "CN(C)C(=O)C1CCN(c2c(Cl)cncc2Cl)CC1", "REPORTED": 99}
{"SMILES_DATA": "CS(=O)(=O)c1ccc(-c2cncc(Cl)c2N2CCC(C(N)=O)CC2)cc1", "REPORTED": 29}
